Tested on: OVCAR-4 ovarian
Assay: NCI-60 one-dose screen, 48 h (100 = growth as untreated, 0 = no growth, -100 = all killed)
Conditions: 10 µM unless noted
The panel holds about 83,000 compounds, 20% with a hit somewhere; the sample as a whole holds those more often.

| compound | target | growth [%] |
| --- | --- | --- |
| O=C1Nc2ccc(F)cc2/C1=N/c1nnc(Sc2ccccc2)s1 | OVCAR-4 ovarian | 95 |
| Cc1ccc(C(=O)c2ccc(CC(=O)N/N=C/c3ccc(O)cc3O)n2C)cc1 | OVCAR-4 ovarian | 20.7 |
| CCCCCCCCCCCCCCCCOC(=O)c1c(C)[nH]c(/C=C2\N=C(c3ccc[nH]3)C=C2OC)c1C | OVCAR-4 ovarian | 72.2 |
| Cc1cc2nc3c4ccccc4n(CCN(C)C)c3nc2cc1C | OVCAR-4 ovarian | -1.33 |
| O=C(CN1CCN(c2cc3c(cc2F)c(=O)c(C(=O)O)cn3C2CC2)CC1)N/N=C/c1ccncc1 | OVCAR-4 ovarian | 98.9 |
| CC(C)c1ccc(C(=O)Nc2sc3cc(O)ccc3c2C#N)cc1 | OVCAR-4 ovarian | 58 |
| CCN(CC)CCOc1nc2c3ccc(Cl)cc3nn2c2ccccc12 | OVCAR-4 ovarian | 35.4 |
| CCOC(=O)c1c(NC(=O)c2ccc(OC)cc2)sc2c(CN(C)C)c(O)ccc12 | OVCAR-4 ovarian | 85.2 |
| CC1(C)CC[C@]2(C(=O)O)CC[C@]3(C)C(=CC[C@@H]4[C@@]5(C)C[C@@H](Cc6cn([C@@H]7O[C@H](CO)[C@@H](O)[C@H](O)[C@H]7O)nn6)[C@H](O)C(C)(C)[C@@H]5CC[C@]43C)[C@@H]2C1 | OVCAR-4 ovarian | 96.6 |
| COc1cccc(OC)c1Oc1c(-c2nc3ccccc3s2)c(C)nn1-c1ccccc1 | OVCAR-4 ovarian | 63.4 |
| CCOC(=O)c1c(NC(=O)c2ccc(C(C)(C)C)cc2)sc2cc(O)ccc12 | OVCAR-4 ovarian | 104 |
| CCN(CCO)CC(C)Nc1ccc([N+](=O)[O-])c2sc3ccccc3c(=O)c12 (stereo not given) | OVCAR-4 ovarian | 43.7 |
| COc1cccc(/C=C2\COc3ccc(O)cc3C2=O)c1 | OVCAR-4 ovarian | 95 |
| COc1ccccc1NC(=O)c1ccc(/C=C/C(=O)c2nccn2C)cc1 | OVCAR-4 ovarian | -34.8 |
| O=C1NC(=O)c2c1c1c3ccccc3[nH]c1c1oc3ccc(F)cc3c21 | OVCAR-4 ovarian | 57.8 |
| CCOC(=O)NN1CC(O)=C(c2nc(-c3ccc(Br)cc3)cs2)C1=N | OVCAR-4 ovarian | 118 |
| COc1cc(C(=O)C(=O)c2cc(OC)c(O)c(OC)c2)cc(OC)c1O | OVCAR-4 ovarian | 101 |
| COc1cc2c(c(OC)c1OC)C(=O)CC(c1cccc(NC(=O)c3ccccc3Br)c1)O2 (stereo not given) | OVCAR-4 ovarian | 90 |
| CCCCCCOC(=O)CC1=C(C)/C(=C/c2[nH]c(-c3ccc[nH]3)cc2OC)N=C1C | OVCAR-4 ovarian | -29.2 |
| O=C(Cn1nnc([N+](=O)[O-])n1)c1ccccc1 | OVCAR-4 ovarian | 91.5 |
